Origin of the recorded values: ChEMBL document CHEMBL1255226

assay: Mean retention time in C57BL/6 mouse at 10 mg/kg, po; type: ADME, organism-based; parameters: dose 10 mg/kg, route oral; settings: in vivo
quantity: MRT (h)
One number for each entry, in h.

Any idea what its MRT is? The compound is CCC(=O)N1CCN(c2ccc(-n3c(=O)ccc4cnc5ccc(-c6cnc7ccccc7c6)cc5c43)cc2C(F)(F)F)CC1 [TORIN1]
1.51

====

experiment: Volume of distribution at steady state in C57BL/6 mouse at 1 mg/kg, iv; assay type: ADME, organism-based; design: dose 1 mg/kg, route intravenous; details: in vivo, read-out: Vdss
quantity: Vd (L/kg)
Answers are plain numbers, in L/kg.

Return reported Vd; argument: CCC(=O)N1CCN(c2ccc(-n3c(=O)ccc4cnc5ccc(-c6cnc7ccccc7c6)cc5c43)cc2C(F)(F)F)CC1
0.59
